B1: library; numbered along this chain (parent)
chain: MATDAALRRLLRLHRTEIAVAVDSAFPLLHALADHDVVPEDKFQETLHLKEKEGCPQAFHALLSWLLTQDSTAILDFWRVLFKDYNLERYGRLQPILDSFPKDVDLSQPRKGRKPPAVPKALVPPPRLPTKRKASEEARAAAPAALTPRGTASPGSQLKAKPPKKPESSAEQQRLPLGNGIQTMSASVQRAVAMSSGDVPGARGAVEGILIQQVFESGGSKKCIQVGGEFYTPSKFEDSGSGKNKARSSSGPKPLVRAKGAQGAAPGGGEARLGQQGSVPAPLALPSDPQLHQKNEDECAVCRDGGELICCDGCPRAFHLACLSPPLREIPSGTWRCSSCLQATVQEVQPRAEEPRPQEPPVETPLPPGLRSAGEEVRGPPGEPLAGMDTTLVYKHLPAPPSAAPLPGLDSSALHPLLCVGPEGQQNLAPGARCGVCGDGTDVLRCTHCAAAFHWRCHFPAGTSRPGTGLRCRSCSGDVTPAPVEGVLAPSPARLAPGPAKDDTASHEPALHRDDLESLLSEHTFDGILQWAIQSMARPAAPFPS

Variants of: B1
Test Protocol: AIRE transcriptional activation functional score (insulin promoter-GFP; nonsense median 0, synonymous median 1) (normalised score); higher = higher AIRE activity (more reporter activation)
Condition Info: with insulin promoter-GFP reporter in HEK293
Binary call on AIRE transcriptional activation functional score: 1.0 from 0.6 upward, 0.0 beneath that.

Examples with answers:
Mutations	Assigned Label
A21Q	0.0
P233G	1.0
Q189A	1.0
G369W	1.0
P497I	1.0
L488P	1.0

Attention now turns to another entry.
Threshold query (AIRE transcriptional activation functional score >= 0.6) on A138S
1.0
